pIC50: −log10 of the molar value.
A compilation of published pIC50 results with UniProtKB P45983.

| COMPOUND STRUCTURE | TARGET ENTITY | pIC50 |
| --- | --- | --- |
| CCCS(=O)(=O)Nc1ccc(F)c(C(=O)c2c[nH]c3ncc(-c4ccc(F)cc4)cc23)c1F | UniProtKB P45983 | ≥ 5.00 |
| CCCCNC(=O)n1ccc2c(C(=O)c3c[nH]c4ncc(-c5ccccc5)cc34)cccc21 | UniProtKB P45983 | ≥ 5.00 |
| COCn1nnnc1-c1ccsc1NC(=O)Cc1ccc(OC)cc1 | UniProtKB P45983 | 5.00 to 7.00 |
| CCCS(=O)(=O)Nc1ccc(F)c(C(=O)c2c[nH]c3ncc(-c4ccccc4)cc23)c1F | UniProtKB P45983 | ≥ 5.00 |
| Cc1nnc(-c2sccc2NC(=O)Cc2cccc3ccccc23)o1 | UniProtKB P45983 | 5.00 to 7.00 |
| O=C([C@H]1CC[C@H](Nc2nccc(-c3cnc4c(OCc5ccccc5)cccn34)n2)CC1)N1CCC(O)CC1 | UniProtKB P45983 | 7.48 |

###

A compilation of published IC50 results with JNK1α1 (Homo sapiens, UniProt P45983).

| COMPOUND | TARGET ENTITY | IC50 |
| --- | --- | --- |
| CS(=O)(=O)Nc1ccc(F)c(C(=O)c2c[nH]c3ncc(-c4cccc(C(N)=O)c4)cc23)c1F | JNK1α1 (Homo sapiens, UniProt P45983) | ≤ 10 µM |
| O=C(NC1COC1)c1cc(-n2ncc3nc(Nc4ccccc4Cl)ccc32)cs1 | JNK1α1 (Homo sapiens, UniProt P45983) | > 1 µM |
| O=C(Cn1c(=O)ccc2cc(C(F)(F)F)ccc21)N(CCCN1CCCC1)c1scc(Cl)c1-c1nc[nH]n1 | JNK1α1 (Homo sapiens, UniProt P45983) | 0.1 to 10 µM |
| CCCS(=O)(=O)Nc1ccc(F)c(C(=O)c2c[nH]c3ncc(-c4cccnc4)cc23)c1F | JNK1α1 (Homo sapiens, UniProt P45983) | ≤ 10 µM |
| COC(=O)c1c(Cc2ccc(C(=O)N[C@H]3[C@@H]4C[C@@H]5C[C@H]3C[C@@](O)(C5)C4)cc2)c(=O)c2cccnc2n1-c1ccccc1 | JNK1α1 (Homo sapiens, UniProt P45983) | 0.047 µM |
| C[C@@H]1CC[C@@H](Nc2cc(NC3CCCC(O)C3)ncc2C(N)=O)C[C@H]1O (stereo partly shown) | JNK1α1 (Homo sapiens, UniProt P45983) | > 1 µM |
| O=C(Cn1c(=O)ccc2cnccc21)Nc1ccsc1-c1cscn1 | JNK1α1 (Homo sapiens, UniProt P45983) | < 0.1 µM |
| O=C(Cc1cncc2ccccc12)Nc1scc(Br)c1-c1nnc[nH]1 | JNK1α1 (Homo sapiens, UniProt P45983) | < 0.1 µM |
| CCNC(=O)N1CCC(Nc2ncc(C(N)=O)c(N[C@@H]3CC[C@@H](C)[C@H](O)C3)n2)CC1 | JNK1α1 (Homo sapiens, UniProt P45983) | < 0.1 µM |
| O=C(Cc1cc(C(F)(F)F)cc2ncccc12)Nc1scc(Br)c1-c1nnc[nH]1 | JNK1α1 (Homo sapiens, UniProt P45983) | 0.1 to 10 µM |
| Cc1cc2cnc(N[C@H]3CC[C@H](O)CC3)nc2n(CCCO)c1=O | JNK1α1 (Homo sapiens, UniProt P45983) | 0.291 µM |
| CCCC(=O)Nc1ccc(F)c(C(O)c2c[nH]c3ncc(-c4cccnc4)cc23)c1F (stereo not shown) | JNK1α1 (Homo sapiens, UniProt P45983) | ≤ 10 µM |
| COc1ccc(CC(=O)Nc2ccsc2-n2cnc(C)c2)cc1 | JNK1α1 (Homo sapiens, UniProt P45983) | > 50 µM |
| O=C(NC(CO)CO)c1cc(-n2ncc3nc(Nc4ccccc4Cl)ccc32)cs1 | JNK1α1 (Homo sapiens, UniProt P45983) | > 1 µM |
| COc1ccc(CC(=O)Nc2sccc2-c2noc(C)n2)cc1 | JNK1α1 (Homo sapiens, UniProt P45983) | 0.1 to 10 µM |
| COc1ccc2c(c1)CC(C(=O)N[C@@H](C)C(=O)N(CC(=O)NCCCCCCNC(=O)c1ccc(-c3n[nH]c4ccccc34)cc1)CC(C)C)CO2 (stereo partly shown) | JNK1α1 (Homo sapiens, UniProt P45983) | 0.154 µM |
| O=C(Nc1cccc(C(=O)c2c[nH]c3ncc(Cl)cc23)c1)Nc1ccon1 | JNK1α1 (Homo sapiens, UniProt P45983) | ≤ 10 µM |
| CCCS(=O)(=O)Nc1ccc(F)c(C(=O)c2c[nH]c3ncc(OC)cc23)c1 | JNK1α1 (Homo sapiens, UniProt P45983) | ≤ 10 µM |
| CN(C)CC(=O)N1CCN(c2cccc3c2ccn3-c2ccnc(N[C@H]3CC[C@H](NS(C)(=O)=O)CC3)n2)CC1 | JNK1α1 (Homo sapiens, UniProt P45983) | 0.378 µM |
| O=C(NC1CNC1)c1cc(-n2ncc3nc(Nc4ccccc4Cl)ncc32)cs1 | JNK1α1 (Homo sapiens, UniProt P45983) | > 1 µM |
| O=C(CN1C(=O)CCc2cc(F)ccc21)Nc1scc(Br)c1-c1ncn[nH]1 | JNK1α1 (Homo sapiens, UniProt P45983) | < 0.1 µM |
| NC(=O)c1cccc(-c2cnc3[nH]cc(C(=O)c4cccc(O)c4F)c3c2)c1 | JNK1α1 (Homo sapiens, UniProt P45983) | ≤ 10 µM |
| O=C(O)/C=C/c1cccc(-c2cnc3[nH]cc(C(=O)c4ccc(Cl)cc4Cl)c3c2)c1 | JNK1α1 (Homo sapiens, UniProt P45983) | ≤ 10 µM |
| O=C(Cc1cccc2cc(C(F)(F)F)cnc12)Nc1scc(Br)c1-c1nc[nH]n1 | JNK1α1 (Homo sapiens, UniProt P45983) | 0.1 to 10 µM |
| C[C@@H]1CC[C@@H](Nc2cc(NCCO)ncc2C(N)=O)C[C@H]1O | JNK1α1 (Homo sapiens, UniProt P45983) | 0.5 to 1 µM |

###

A compilation of published IC50 results with JNK1α1 (Homo sapiens, UniProt P45983).
READOUT KIND: IC50

| COMPOUND | MEAS VALUE |
| --- | --- |
| O=C(Cn1c(=O)ccc2nc(C(F)(F)F)ccc21)Nc1scc(Br)c1-c1ncn[nH]1 | < 100 nM |
| O=C(Nc1cccc(C(=O)c2c[nH]c3ncc(-c4cccnc4)cc23)c1)Nc1ccc(Cl)c(C(F)(F)F)c1 | ≤ 10000 nM |
| COC(=O)c1c(Cc2ccc(C(=O)N[C@@H]3[C@@H]4C[C@@H]5C[C@H]3C[C@@](NS(C)(=O)=O)(C5)C4)cc2)c(=O)c2ccc(Cl)cc2n1-c1ccccc1 | 57 nM |
| COc1ccc(-c2coc3ccc(-c4nnc(SC)o4)cc23)cc1 | > 10000 nM |
| O=C(Cc1cccc2ncc(F)cc12)Nc1scc(Br)c1-c1nc[nH]n1 | < 100 nM |
| O=C(Cc1cccc2nccn12)Nc1scc(Br)c1-c1ncn[nH]1 | < 100 nM |
| CN(C)CCN(C(=O)Cn1c(=O)ccc2cc(C(F)(F)F)ccc21)c1scc(Cl)c1-c1nc[nH]n1 | 100 to 10000 nM |
| Fc1cc(Cc2c[nH]c3ncccc23)ccc1OCc1ccc(Cl)cc1 | ≤ 10000 nM |
| OC(c1ccc(OCc2nc3ccccc3[nH]2)c(F)c1)c1c[nH]c2ncccc12 (stereo not drawn) | ≤ 10000 nM |

###

A compilation of published IC50 results with JNK1α1 (Homo sapiens).
READOUT KIND: IC50

| COMPOUND STRUCTURE | READOUT KIND | MEAS VALUE |
| --- | --- | --- |
| C[C@@H]1CC[C@@H](Nc2nc(NC(C)(C)C)ncc2C(N)=S)C[C@H]1O | IC50 | < 100 nM |
| Fc1ccc(SC[C@@H]2CCc3nc(-c4ccc(F)cc4)c(-c4ccnc(NC5CCC5)n4)n32)cc1 | IC50 | 92 nM |
| CCCNC(=O)Nc1ccc(F)c(C(=O)c2c[nH]c3ncc(-c4cccnc4)cc23)c1F | IC50 | ≤ 10000 nM |
| COC(=O)c1c(Cc2ccc(C(=O)N[C@@H]3[C@@H]4C[C@@H]5C[C@H]3C[C@@](O)(C5)C4)cc2)c(=O)c2ccc(C(F)(F)F)nc2n1-c1ccccc1 | IC50 | 77 nM |
| C[C@@H]1CC[C@@H](Nc2nc(NC(C)(C)C)ncc2F)C[C@H]1O | IC50 | > 1000 nM |
| COc1ccc(CC(=O)Nc2ccsc2-c2cnccn2)cc1 | IC50 | 100 to 10000 nM |
| Cc1ccncc1-c1cccc2c1nnn2-c1ccnc(N[C@H]2CC[C@H](C(=O)N3CCC(O)CC3)CC2)n1 | IC50 | 27.5 nM |
| CCCS(=O)(=O)Nc1ccc(F)c(C(=O)c2c[nH]c3ncc(N4CCC(C)CC4)cc23)c1F | IC50 | ≤ 10000 nM |
| c1csc(-c2cnc3[nH]cc(-c4cncs4)c3c2)c1 | IC50 | < 500 nM |
| O=C(c1c[nH]c2ncc(-c3ccc(Cl)cc3)cc12)c1cccc2c1ccn2C(=O)NCc1ccccc1 | IC50 | ≤ 10000 nM |
| Cn1cnc(-c2c(Cl)csc2NC(=O)CN2C(=O)CCc3ncccc32)n1 | IC50 | < 100 nM |
| CC(=O)Nc1cccc(-c2cnc3[nH]cc(C(=O)c4ccccc4F)c3c2)c1 | IC50 | ≤ 10000 nM |
